assayed.system: histamine H3 receptor (Rattus norvegicus, UniProt Q9QYN8)
Construct: from tissue
Sequence (Q9QYN8 whole entry): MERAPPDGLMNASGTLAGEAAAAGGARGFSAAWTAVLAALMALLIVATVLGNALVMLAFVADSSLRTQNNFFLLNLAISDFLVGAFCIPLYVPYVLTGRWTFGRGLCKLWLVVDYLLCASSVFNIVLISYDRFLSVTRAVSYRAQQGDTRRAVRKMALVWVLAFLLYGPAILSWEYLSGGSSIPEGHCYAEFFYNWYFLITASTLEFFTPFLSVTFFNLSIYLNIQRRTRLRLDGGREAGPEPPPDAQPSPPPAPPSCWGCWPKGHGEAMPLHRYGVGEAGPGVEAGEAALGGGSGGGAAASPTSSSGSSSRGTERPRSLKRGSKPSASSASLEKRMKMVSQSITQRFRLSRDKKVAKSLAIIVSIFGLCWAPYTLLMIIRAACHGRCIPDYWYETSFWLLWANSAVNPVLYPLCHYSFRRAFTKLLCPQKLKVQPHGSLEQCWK
assay.procedure: Inhibition of [^3 H]-N-alpha-methylhistamine binding to rat brain membranes
Protocol: A series of compounds were prepared and tested for their histamine H3 receptor antagonist activity. The antagonist activity of the compounds was detected by observing inhibition of (^3 H)-N-(alpha)methylhistamine activity on rat brain membranes. The various compounds were tested for the ability to bind to the histamine H3 receptor. […]
observation.type: IC50 (nM)
Use nM as the unit, but write only the number.

Record O=C(CC1CCCCC1)N1CCC(c2c[nH]cn2)CC1 : what is its IC50 with histamine H3 receptor (Rattus norvegicus, UniProt Q9QYN8)? 19

Now the same for CC(C)(C)OC(=O)N1CCC(c2c[nH]cn2)CC1 244

Now this one: S=C(NC1CCCCC1)N1CCC(c2cnc[nH]2)CC1 [Thioperamide, reference compound] 4

---

assayed.system: histamine H3 receptor (Rattus norvegicus, UniProt Q9QYN8)
observation.type: pKd
# pKd = -log10(concentration in molar units)

# returns recorded pKd (system: histamine H3 receptor (Rattus norvegicus, UniProt Q9QYN8)) for CNCCc1c[nH]cn1 [[^3 H]-N-alpha-methylhistamine, reference compound] 9.72

---

assayed.system: histamine H3 receptor (Rattus norvegicus, UniProt Q9QYN8)
Construct: from tissue
assay.procedure: Inhibition of [^3 H]-N-alpha-methylhistamine binding to rat brain membranes
settings: ^3 HN^α -methylhistamine as radioligand, rat brain membranes; first part of Table I; read-out: IC50
Consider the following compounds; for each one, report its IC50.

Notebook: pull reported IC50 for histamine H3 receptor (Rattus norvegicus, UniProt Q9QYN8), entry CNC(=S)NCCCCc1cnc[nH]1 [Burimamide, reference compound] 156 nM

Further, for O=C(CC(c1ccccc1)c1ccccc1)N1CCC(c2c[nH]cn2)CC1 ? 93.1 nM

Also O=C(c1ccccc1)N1CCC(c2c[nH]cn2)CC1 ? 151 nM

Then O=C(CCC(c1ccccc1)c1ccccc1)N1CCC(c2c[nH]cn2)CC1 ? 124 nM

Similarly, O=C(CCc1ccccc1)N1CCC(c2c[nH]cn2)CC1 ? 34.1 nM

Can you handle O=C(CCCc1ccccc1)N1CCC(c2c[nH]cn2)CC1 next? 262 nM

Now consider O=C(CC=C(c1ccccc1)c1ccccc1)N1CCC(c2c[nH]cn2)CC1 . 1000 nM

Also check N#CN=C(Oc1ccccc1)N1CCC(c2c[nH]cn2)CC1 231 nM

Please give the result for O=C(CCC1CCCCC1)N1CCC(c2c[nH]cn2)CC1 too. 34 nM

Same thing, different compound: O=C(CCCC1CCCCC1)N1CCC(c2c[nH]cn2)CC1 41.4 nM

---

assayed.system: histamine H3 receptor (Rattus norvegicus)
Construct: from tissue
assay.procedure: Inhibition of [^3 H]-N-alpha-methylhistamine binding to rat brain membranes
settings: read-out: affinity; repeated in text
Protocol: A series of compounds were prepared and tested for their histamine H3 receptor antagonist activity. The antagonist activity of the compounds was detected by observing inhibition of (^3 H)-N-(alpha)methylhistamine activity on rat brain membranes. The various compounds were tested for the ability to bind to the histamine H3 receptor. […]
observation.type: pIC50
Quick note: pIC50 means taking -log10 of the concentration in moles per liter.

Give the reported pIC50 for S=C(NC1CCCCC1)N1CCC(c2cnc[nH]2)CC1 [Thioperamide, reference compound] (system: histamine H3 receptor (Rattus norvegicus)). 8.40

---

assayed.system: histamine H3 receptor (Rattus norvegicus, UniProt Q9QYN8)
Construct: from tissue
assay.procedure: Inhibition of [^3 H]-N-alpha-methylhistamine binding to rat brain membranes
settings: ^3 HN^α -methylhistamine as radioligand, rat brain membranes; second part of Table I; read-out: IC50
Give IC50 for every item shown.
Form entry: value (nM) — number only.

// returns reported IC50 for input O=C(/C=C/c1ccccc1)N1CCC(c2c[nH]cn2)CC1 570

Please do the same for O=C(C(c1ccccc1)C1CCCCC1)N1CCC(c2c[nH]cn2)CC1 (centres unmarked) as well. 260
